molecular target: human recombinant BACE2 (Homo sapiens (Human)); experiment: In vitro enzymatic BACE2 FRET assay; details: read-out: BACE2 Enzyme IC50
Sequence (Q9Y5Z0 63-518): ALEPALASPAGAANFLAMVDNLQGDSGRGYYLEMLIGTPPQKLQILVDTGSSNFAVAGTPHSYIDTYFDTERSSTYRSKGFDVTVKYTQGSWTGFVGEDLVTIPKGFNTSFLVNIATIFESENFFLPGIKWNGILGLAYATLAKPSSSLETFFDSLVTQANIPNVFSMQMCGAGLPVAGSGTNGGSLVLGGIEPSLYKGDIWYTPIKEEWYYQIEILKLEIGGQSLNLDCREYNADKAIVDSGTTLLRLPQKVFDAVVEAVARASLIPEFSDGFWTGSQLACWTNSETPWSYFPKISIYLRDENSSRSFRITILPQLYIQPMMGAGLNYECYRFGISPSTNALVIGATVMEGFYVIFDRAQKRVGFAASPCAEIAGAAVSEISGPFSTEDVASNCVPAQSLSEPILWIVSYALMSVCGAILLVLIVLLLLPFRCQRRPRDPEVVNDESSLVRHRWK
Each item that follows carries a reported pIC50.
// pIC50: -log10(molar conc.)

// below: answered molecules
- C#CCOc1cnc(/C(F)=C/c2ccc(F)c([C@]34CN(C(=O)OC)C[C@H]3CSC(N)=N4)c2)cn1: 6.59
- N#Cc1ccc(/C(F)=C/c2ccc(F)c([C@]34CO[C@H](C(F)F)[C@H]3CSC(N)=N4)c2)nc1: 6.13

Data request: Name the reported pIC50 value associated with the molecule C#CCOc1cnc(/C(F)=C/c2ccc(F)c([C@]34CN(C(C)=O)C[C@H]3CSC(N)=N4)c2)cn1
Data returned: 6.40

Data request: Entry C#CCOc1cnc(/C(F)=C/c2ccc(F)c([C@]34CN(C(=O)CC)C[C@H]3CSC(N)=N4)c2)cn1 has what pIC50?
Data returned: 6.45

Data request: Any idea what its pIC50 is? The molecule is NC1=N[C@@]2(c3cc(/C=C(\F)c4ccc(Cl)cn4)ccc3F)COC[C@H]2CS1
Data returned: 7.24

Data request: Name the recorded pIC50 for COc1nc(N2C[C@H]3CSC(N)=N[C@@]3(c3cc(/C=C(\F)c4ccc(C#N)cn4)ccc3F)C2)ncc1F .
Data returned: 8.37

Data request: Looking for the measured pIC50 of COC[C@H](C)Oc1cnc(/C(F)=C/c2ccc(F)c([C@]34CN(c5ncc(F)cn5)C[C@H]3CSC(N)=N4)c2)cn1 , can you help?
Data returned: 7.51

These data points were gathered from patent US11548903B2.
